// reported IC50 for each item listed
target: HCV NS5B RdRp genotype 1b (Hepatitis C virus genotype 1b); construct: The protein was expressed with an 18 amino acid C-terminal truncation to enhance the solubility; made in house; host or cells: E. coli BL21(DE3), pET21a vector; experiment: Standard HCV NS5B RdRp enzyme assay; type: biochemical; conditions: untitled table after Table 1b; HCV NS5B RdRp genotype 1b; read-out: IC50
Sequence (Q9WMX2 2420-2992): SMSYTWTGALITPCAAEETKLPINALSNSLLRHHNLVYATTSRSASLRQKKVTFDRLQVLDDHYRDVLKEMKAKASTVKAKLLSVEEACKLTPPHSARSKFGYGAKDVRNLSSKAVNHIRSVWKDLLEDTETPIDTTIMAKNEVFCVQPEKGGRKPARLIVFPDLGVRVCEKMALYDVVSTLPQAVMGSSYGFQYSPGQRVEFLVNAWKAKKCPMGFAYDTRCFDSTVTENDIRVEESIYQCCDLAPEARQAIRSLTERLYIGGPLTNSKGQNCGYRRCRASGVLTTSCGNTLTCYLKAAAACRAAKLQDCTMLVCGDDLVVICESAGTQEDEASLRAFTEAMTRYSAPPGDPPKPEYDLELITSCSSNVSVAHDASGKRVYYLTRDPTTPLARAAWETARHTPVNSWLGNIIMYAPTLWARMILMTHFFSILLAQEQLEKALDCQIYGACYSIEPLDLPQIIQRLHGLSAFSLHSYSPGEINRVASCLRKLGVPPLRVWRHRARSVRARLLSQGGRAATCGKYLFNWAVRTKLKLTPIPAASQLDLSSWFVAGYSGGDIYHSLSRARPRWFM
Answer in nM, number only, no unit symbol.

Per the record, CCC[C@H](CO)NC(=O)c1cccc(-c2ccc3oc(-c4ccc(F)cc4)c(C(=O)NC)c3c2)c1 [drawing 617] has IC50 of 1150

Record CNC(=O)c1c(-c2ccc(F)cc2)oc2ccc(-c3cc(C(=O)NC4(c5ccncc5)CC4)ccc3C)cc12 [drawing 603] . Reported IC50: 3.95

The measurements presented in this section are drawn from patent US8309558B2.
